Measured pIC50-Ih values are reported for all entries that follow.
# System: hyperpolarisation-activated inward cation current Ih in dorsal root ganglion (DRG) cells
# Method Description: Inhibition of hyperpolarisation-activated cation current (Ih), whole cell voltage clamp on cultured DRG cells
# Format: cell-based
# Condition Description: (-) log concentration at which Ih activation rate constant kact is reduced by 50%; mean; rat DRG cells
Reported Endpoint: pIC50-Ih

{"Compound": "C=CC[C@@H](N)c1ccccc1-c1noc2ccccc12.Cl", "Numeric Readout": 5.12}
{"Compound": "O=C(O)C(=O)O.c1ccc(CNCc2ccccc2-c2noc3ccccc23)cc1", "Numeric Readout": 5.06}
{"Compound": "C=CC[C@H](N)c1cc(F)ccc1-c1noc2ccccc12.O=C(O)/C=C/C(=O)O", "Numeric Readout": 5.98}
{"Compound": "C=CC[C@H](N)c1ccccc1-c1noc2cc(Cl)ccc12.Cl", "Numeric Readout": 6.79}
{"Compound": "C=CCC(N)c1ccccc1-c1noc2cc(Cl)ccc12.Cl (stereo not shown)", "Numeric Readout": 6.44}
{"Compound": "CC(N)c1ccccc1-c1noc2ccccc12.Cl (stereo not shown)", "Numeric Readout": 5.24}
{"Compound": "C=CC[C@H](N)c1ccccc1-c1noc2ccccc12.Cl", "Numeric Readout": 6.48}
{"Compound": "CCCCC(N)c1ccccc1-c1noc2ccccc12.Cl (stereo not shown)", "Numeric Readout": 5.98}
{"Compound": "CC(O)c1ccccc1-c1noc2ccccc12 (stereo not shown)", "Numeric Readout": 5.50}
{"Compound": "C=CC[C@H](N)c1ccccc1-c1noc2cc(F)ccc12.O=C(O)/C=C/C(=O)O", "Numeric Readout": 6.13}

====

Reported Endpoint: melting point

{"Molecule": "C=CCC(N)c1cc(F)ccc1-c1noc2ccccc12.O=C(O)/C=C/C(=O)O (stereo not drawn)", "Result": "176 to 180 °C"}
{"Molecule": "C=CCC(N)c1ccccc1-c1ccccc1.Cl (stereo not drawn)", "Result": "214 to 218 °C"}
{"Molecule": "O=C(O)C(=O)O.c1ccc(CNCc2ccccc2-c2noc3ccccc23)cc1", "Result": "165 °C"}
{"Molecule": "CC(C)=CCC(N)c1ccccc1-c1noc2ccccc12.O=C(O)/C=C\\C(=O)O (stereo not drawn)", "Result": "132 to 135 °C"}
{"Molecule": "C=CCC(N)c1ccccc1-c1cnc2ccccc2c1.O=C(O)/C=C/C(=O)O (stereo not drawn)", "Result": "194 to 197 °C"}
{"Molecule": "C=CCC(N)c1ccccc1N1C=CC=NC1.O=C(O)/C=C/C(=O)O (stereo not drawn)", "Result": "75 to 77 °C"}
{"Molecule": "C=CCC(N)c1ccccc1-c1cc2ccccc2o1.Cl (stereo not drawn)", "Result": "225 to 227 °C"}
{"Molecule": "C=CCC(N)c1ccccc1-c1cc2cc(Cl)ccc2o1.Cl (stereo not drawn)", "Result": "226 to 228 °C"}
{"Molecule": "CC(N)c1ccccc1-c1noc2ccccc12.Cl (stereo not drawn)", "Result": "229 to 236 °C"}
{"Molecule": "C=CCC(N)c1cccc(-c2noc3ccccc23)c1.O=C(O)/C=C\\C(=O)O (stereo not drawn)", "Result": "148 to 150 °C"}
{"Molecule": "C=CC[C@@H](N)c1ccccc1-c1noc2ccccc12.Cl", "Result": "191 °C"}
{"Molecule": "C#CCC(N)c1ccccc1-c1noc2ccccc12.O=C(O)/C=C/C(=O)O (stereo not drawn) [Example 13(4)]", "Result": "161 to 169 °C"}
{"Molecule": "C=CC[C@@H](N)c1ccc(F)cc1-c1noc2ccccc12.O=C(O)/C=C/C(=O)O", "Result": "104 to 109 °C"}
{"Molecule": "C=CCC(N)c1ccccc1-c1ccccc1F.O=C(O)/C=C/C(=O)O (stereo not drawn)", "Result": "225 to 226 °C"}
{"Molecule": "C=CCC(N)c1ccccc1-c1noc2ccccc12.Cl (stereo not drawn)", "Result": "191 °C"}
{"Molecule": "C=CC[C@H](N)c1ccccc1-c1noc2cc(Cl)ccc12.Cl", "Result": "169 to 178 °C"}
{"Molecule": "CN(C)Cc1ccccc1-c1noc2ccccc12.Cl", "Result": "190 °C"}
{"Molecule": "Cl.NC(Cc1ccsc1)c1ccccc1-c1noc2ccccc12 (stereo not drawn)", "Result": "264 to 267 °C"}
{"Molecule": "C=CCC(N)c1ccccc1-c1cc2cc(F)ccc2s1.Cl (stereo not drawn)", "Result": "104 to 106 °C"}
{"Molecule": "C=CC[C@@H](N)c1cc(F)ccc1-c1noc2ccccc12.O=C(O)/C=C/C(=O)O", "Result": "171 to 173 °C"}
{"Molecule": "C=CC[C@H](N)c1ccccc1-c1noc2ccccc12.Cl", "Result": "191 °C"}

====

Measured melting point values are reported for all entries that follow.

{"Compound": "c1ccc(-c2noc3ccccc23)c(CNCc2ccccc2-c2noc3ccccc23)c1", "melting point": "138 °C"}
{"Compound": "C=CCC(N)c1cc(F)ccc1-c1noc2cc(Cl)ccc12.O=C(O)/C=C\\C(=O)O (stereo not shown)", "melting point": "162 to 164 °C"}
{"Compound": "C=CCC(N)c1ccccc1Cc1ccccc1OC.O=C(O)/C=C/C(=O)O (stereo not shown)", "melting point": "172 to 174 °C"}
{"Compound": "C=CCC(N)c1ccccc1-c1ccccc1OC.Cl (stereo not shown)", "melting point": "236 to 240 °C"}
{"Compound": "C=CCC(N)c1ccccc1-c1ccc(F)cc1.O=C(O)/C=C/C(=O)O (stereo not shown)", "melting point": "201 to 203 °C"}
{"Compound": "C=CCC(N)c1ccccc1-c1ccc(Cl)cc1F.O=C(O)/C=C/C(=O)O (stereo not shown)", "melting point": "213 to 215 °C"}
{"Compound": "C=CCC(N)c1cc(F)ccc1-c1noc2ccc(F)cc12.O=C(O)/C=C/C(=O)O (stereo not shown)", "melting point": "168 to 173 °C"}
{"Compound": "C=CCC(N)c1ccccc1-c1nc2ccccc2o1.O=C(O)/C=C/C(=O)O (stereo not shown)", "melting point": "202 to 204 °C"}
{"Compound": "C=CCC(N)c1ccccc1-c1ccc(C)cc1.O=C(O)/C=C/C(=O)O (stereo not shown)", "melting point": "198 to 200 °C"}
{"Compound": "C=CC[C@@H](N)c1ccccc1-c1noc2cc(Cl)ccc12.Cl", "melting point": "144 to 159 °C"}
{"Compound": "CNCc1ccccc1-c1noc2ccccc12.Cl", "melting point": "230 °C"}
{"Compound": "C=CCC(N)c1ccc(F)cc1-c1noc2ccc(F)cc12.O=C(O)/C=C/C(=O)O (stereo not shown)", "melting point": "164 to 169 °C"}
{"Compound": "Cl.NC(Cc1ccccc1)c1ccccc1-c1noc2ccccc12 (stereo not shown)", "melting point": "210 to 246 °C (dec.)"}
{"Compound": "c1ccc(C2CCCN2)c(-c2noc3ccccc23)c1 (stereo not shown)", "melting point": "253 to 261 °C"}
{"Compound": "COc1ccccc1CNCc1ccccc1-c1noc2ccccc12.O=C(O)C(=O)O", "melting point": "184 °C"}
{"Compound": "C=CCC(N)c1ccccc1-c1ccc(Cl)c(F)c1.O=C(O)/C=C/C(=O)O (stereo not shown)", "melting point": "192 to 194 °C"}
{"Compound": "C=CCC(N)c1ccccc1-c1nc2ccccc2s1.Cl (stereo not shown)", "melting point": "240 to 242 °C"}
{"Compound": "CNC(Cc1ccccc1)c1ccccc1-c1noc2ccccc12.Cl (stereo not shown)", "melting point": "175 °C"}
{"Compound": "C=CCC(N)c1cc(-c2noc3ccccc23)cs1.O=C(O)/C=C/C(=O)O (stereo not shown)", "melting point": "161 to 164 °C"}

====

Reported Endpoint: melting point

{"Molecule": "CC(C)CC(N)c1ccccc1-c1noc2cc(F)ccc12.O=C(O)/C=C/C(=O)O (stereo not shown)", "Result": "174 to 184 °C"}
{"Molecule": "C=CCC(N)c1ccccc1-c1nccs1.O=C(O)/C=C/C(=O)O (stereo not shown)", "Result": "156 to 161 °C"}
{"Molecule": "C=CCC(N)c1ccccc1-c1cncc2ccccc12.O=C(O)/C=C/C(=O)O (stereo not shown)", "Result": "246 to 248 °C"}
{"Molecule": "C=CCC(N)c1ccccc1-c1noc2cc(F)ccc12.Cl (stereo not shown)", "Result": "192 to 195 °C"}
{"Molecule": "C=CC[C@H](N)c1ccccc1-c1noc2cc(F)ccc12.Cl", "Result": "166 to 174 °C"}
{"Molecule": "C=CCC(N)c1ccccc1-c1ccc(-c2ccccc2)c(F)c1.O=C(O)/C=C/C(=O)O (stereo not shown)", "Result": "205 to 208 °C"}
{"Molecule": "C=CCC(N)c1ccccc1-c1cc(-c2ccccc2)on1.O=C(O)/C=C/C(=O)O (stereo not shown)", "Result": "165 to 180 °C"}
{"Molecule": "C=CC[C@H](N)c1ccccc1-c1noc2cc(F)ccc12.O=C(O)/C=C/C(=O)O", "Result": "146 to 149 °C"}
{"Molecule": "C#CCC(N)c1ccccc1-c1noc2ccccc12.O=C(O)C(=O)O (stereo not shown)", "Result": "> 250 °C"}
{"Molecule": "Cl.Cl.c1cncc(CNCc2ccccc2-c2noc3ccccc23)c1", "Result": "154 °C"}
